- Test system: Rattus norvegicus
- Assay method text: In vivo hypolipidemic activity, expressed as percent decrease in serum cholesterol in rat, at dosage of 20 mg for 7 days.
- Format: functional
Rule: Decrease below 10% gives met, anything at or above gives not met.

Compound: C=C(C)C(=O)OCCOC(=O)/C=C/c1ccc(OCCCCCCCCCCCCCCCC)cc1
Qualitative label: not met
//
Compound: C/C(=C\c1ccc(Oc2ccccc2)cc1)C(=O)OCCCl
Qualitative label: not met
//
Compound: CCCCCCCCCCCCCCOc1ccc(/C=C(\C)C(=O)OCC(O)CO)cc1 (stereo in doubt; 97)
Qualitative label: not met
//
Compound: CCCCCCCCCCCCCCCCOc1ccc(/C=C(\C)C(=O)OCCCl)cc1
Qualitative label: not met
//
Compound: CCCCCCCCCCCCCCOc1ccc(/C=C(\C)C(=O)OCC)cc1
Qualitative label: met
//
Compound: CCCCCCCCCCCCCCCCOc1ccc(/C=C(\C)C(=O)O)cc1
Qualitative label: met

====

- Species on record: Rattus norvegicus
- Assay method text: Hypolipidemic activity expressed as percentage decrease in triglyceride in rat, at dosage of 50 mg for 7 days
- Type: functional

Compound: CCCCCCCCCCOc1ccc(/C=C/C(=O)O)cc1
Readout units: %
Decrease: 18

Compound: CCCCCCCCCCCCCCOc1cccc(/C=C(\C)C(=O)O)c1
Readout units: %
Decrease: -11

Compound: CCCCCCCCCCCCCCCCCCOc1ccc(/C=C(\C)C(=O)OCCCO)cc1
Readout units: %
Decrease: 14

Compound: C=C(C)C(=O)OCCOC(=O)/C(C)=C/c1ccc(OCCCCCCCCCCCC)cc1
Readout units: %
Decrease: 43

Compound: CCCCCCCCOc1ccc(/C=C(\C)C(=O)OCC(O)CO)cc1 (stereo unspecified)
Readout units: %
Decrease: 21

Compound: C/C(=C\c1ccc(Oc2ccccc2)cc1)C(=O)OCCCl
Readout units: %
Decrease: -6

Compound: CCCCCCCCCCCCCCCCOc1ccc(/C=C(\C)C(=O)Oc2ccccc2)cc1
Readout units: %
Decrease: 46

Compound: CCCCCCCCCCCCCCCCOc1ccc(/C=C/C(=O)OCCCl)cc1
Readout units: %
Decrease: 43

Compound: O=C(/C=C/c1ccc(Oc2ccccc2)cc1)OCC(O)CO (stereo unspecified)
Readout units: %
Decrease: 29

Compound: CCCCCCCCCCCCCCCCOc1ccc(/C=C(\C)C(=O)OCC(O)CO)cc1 (stereo unspecified)
Readout units: %
Decrease: 28

Compound: CCCCCCCCCCCCOc1ccc(/C=C(\C)C(=O)OCCCl)cc1
Readout units: %
Decrease: 42

Compound: CCCCCCCCCCCCOc1ccc(/C=C(\C)C(=O)O)cc1
Readout units: %
Decrease: 31

Compound: CCCCCCCCCCCCCCCCOc1ccc(/C=C/C(=O)OCCCCl)cc1
Readout units: %
Decrease: 48

Compound: CCCCCCCCCCCCCCOc1ccc(/C=C(\C)C(=O)OCC(O)CO)cc1 (stereo in doubt; 98)
Readout units: %
Decrease: 9

Compound: C=C(C)C(=O)OCCOC(=O)/C=C/c1ccc(OCCCCCCCCCCCC)cc1
Readout units: %
Decrease: 34

Compound: CCCCCCCCCCCCCCOc1ccc(/C(C)=C/C(=O)O)cc1
Readout units: %
Decrease: 41
